These entries and their values trace back to paper doi:10.1101/2024.08.25.609621.

Listing of recorded microsomal CLint at 1 µM by entry.
Experiment: Microsomal stability
Type: in vitro ADME, mouse
Conditions: liver microsomes, pH 7.4; mouse microsomes; read-out: CLint (mouse) (µl/min/mg protein), mean
quantity measured: microsomal CLint at 1 µM (µL/min/mg)

>>> value_observed("C[C@H]1CCCN(c2ncnc3[nH]ccc23)[C@H]1CO")
44.4
>>> value_observed("CC(C)(O)[C@H]1CCCN1c1ncnc2[nH]ccc12")
73

###

Target: SARS-CoV-2 NSP3 macrodomain (Mac1), P43 crystal form (Severe acute respiratory syndrome coronavirus 2, UniProt P0DTD1)
Type: binding
Settings: occupancy estimate from PanDDA 1-BDC
quantity measured: 2*(1-BDC) (%)

>>> value_observed("OCC(CC1CC1)Nc1ncnc2[nH]ccc12 (stereo not shown)")
28
>>> value_observed("CC(C)(C)[C@@H]1CCN(c2ncnc3[nH]ccc23)[C@H](CO)C1")
22
>>> value_observed("O[C@@H]1CN(c2ncnc3[nH]ccc23)C[C@H]1F")
40
>>> value_observed("O=C(O)C(F)(F)F.OC1([C@H]2CCCN2c2ncnc3[nH]ccc23)Cc2ccccc2C1")
40
>>> value_observed("Cc1sc2ncnc(Sc3ccccc3C(=O)O)c2c1C")
30
>>> value_observed("OCC(Nc1ncnc2[nH]ccc12)C1CCCC1 (stereo not shown)")
32
>>> value_observed("OCC(COCc1ccccc1)Nc1ncnc2[nH]ccc12 (stereo not shown)")
38
>>> value_observed("CC(c1ccccc1)C(CO)Nc1ncnc2[nH]ccc12 (stereo not shown)")
28
>>> value_observed("CCC(Nc1ncnc2[nH]ccc12)C(C)(C)O (stereo not shown)")
28
>>> value_observed("Cc1nn(C)cc1C1CCC(CO)N1c1ncnc2[nH]ccc12 (stereo not shown)")
20
